system: Phakopsora pachyrhizi; assay: Soybean rust greenhouse test: preventive spray of young soybean plants, ABBOTT % efficacy, Colby comparison; assay type: in vivo; settings: fungicide + tolerant soybean variety TMG 803, 0.2 ppm a.i.
TEST_READOUT: Expected value, calculated using Colby's formula (%)
Number in %, nothing else.

See these solved cases before continuing.
[[record]]
molecule = "Cn1cc(C(=O)Nc2ccc(F)cc2-c2ccc(Cl)c(Cl)c2)c(C(F)F)n1 [Bixafen]"
system_tested = "Phakopsora pachyrhizi"
endpoint_value = 55

[[record]]
molecule = "Cn1cc(C(=O)Nc2ccccc2-c2cc(F)c(F)c(F)c2)c(C(F)F)n1 [Fluxapyroxad]"
system_tested = "Phakopsora pachyrhizi"
endpoint_value = 20

[[record]]
molecule = "CC(C)C1C2CCC1c1c(NC(=O)c3cn(C)nc3C(F)F)cccc12 (centres unmarked) [Isopyrazam]"
system_tested = "Phakopsora pachyrhizi"
endpoint_value = 30

[[record]]
molecule = "Cc1nn(C)c(F)c1C(=O)Nc1ccccc1C(C)CC(C)C (centres unmarked) [Penflufen]"
system_tested = "Phakopsora pachyrhizi"
endpoint_value = 50


// below: Expected value, calculated using Colby's formula requested for another molecule
IN: For the molecule Cn1cc(C(=O)Nc2ccccc2C2CC2C2CC2)c(C(F)F)n1 (centres unmarked) [Sedaxane] , what Expected value, calculated using Colby's formula is on record?
OUT: 30

###

tested on: Phakopsora pachyrhizi; assay: Soybean rust greenhouse test: preventive spray of young soybean plants, ABBOTT % efficacy, Colby comparison; type: in vivo; conditions: fungicide + tolerant soybean variety TMG 803, 0.2 ppm a.i.
TEST_READOUT: Actual efficacy (%)
Number in %, nothing else.

See these solved cases before continuing.
[[record]]
compound = "Cn1cc(C(=O)Nc2ccccc2C2CC2C2CC2)c(C(F)F)n1 (centres unmarked)"
test_readout = "Actual efficacy"
endpoint_value = 50

[[record]]
compound = "Cn1cc(C(=O)Nc2ccccc2-c2cc(F)c(F)c(F)c2)c(C(F)F)n1"
test_readout = "Actual efficacy"
endpoint_value = 30

[[record]]
compound = "Cn1cc(C(=O)Nc2ccc(F)cc2-c2ccc(Cl)c(Cl)c2)c(C(F)F)n1"
test_readout = "Actual efficacy"
endpoint_value = 60

[[record]]
compound = "Cc1nn(C)c(F)c1C(=O)Nc1ccccc1C(C)CC(C)C (centres unmarked)"
test_readout = "Actual efficacy"
endpoint_value = 70


// below: Actual efficacy requested for another compound
IN: For the compound CC(C)C1C2CCC1c1c(NC(=O)c3cn(C)nc3C(F)F)cccc12 (centres unmarked) , what Actual efficacy is on record?
OUT: 55

###

Listed below: Expected value, calculated using Colby's formula values for each entry.
tested on: Phakopsora pachyrhizi; assay: Soybean rust greenhouse test: preventive spray of young soybean plants, ABBOTT % efficacy, Colby comparison; assay type: in vivo; conditions: fungicide + tolerant soybean variety TMG 803, 1 ppm a.i.
Number in %, nothing else.

See these solved cases before continuing.
[[record]]
compound = "Cc1nn(C)c(F)c1C(=O)Nc1ccccc1C(C)CC(C)C (centres unmarked)"
endpoint_value = 50

[[record]]
compound = "Cn1cc(C(=O)Nc2ccccc2C2CC2C2CC2)c(C(F)F)n1 (centres unmarked)"
endpoint_value = 30

[[record]]
compound = "Cn1cc(C(=O)Nc2ccc(F)cc2-c2ccc(Cl)c(Cl)c2)c(C(F)F)n1"
endpoint_value = 58


IN: For the compound CC(C)C1C2CCC1c1c(NC(=O)c3cn(C)nc3C(F)F)cccc12 (centres unmarked) , what Expected value, calculated using Colby's formula is on record?
OUT: 65

IN: For the compound `Cn1cc(C(=O)Nc2ccccc2-c2cc(F)c(F)c(F)c2)c(C(F)F)n1` , what Expected value, calculated using Colby's formula is on record?
OUT: 26

###

Listed below: Expected value, calculated using Colby's formula values for each entry.
system: Phakopsora pachyrhizi; test: Soybean rust greenhouse test: preventive spray of young soybean plants, ABBOTT % efficacy, Colby comparison; format: in vivo; settings: fungicide + tolerant soybean variety TMG 803, 25 ppm a.i.
Give your result as the value with the unit written after it.

See these solved cases before continuing.
[[record]]
molecule = "Cn1cc(C(=O)Nc2ccccc2C2CC2C2CC2)c(C(F)F)n1 (stereo not shown)"
endpoint_value = "99%"

[[record]]
molecule = "Cn1cc(C(=O)Nc2ccc(F)cc2-c2ccc(Cl)c(Cl)c2)c(C(F)F)n1"
endpoint_value = "80%"

[[record]]
molecule = "Cc1nn(C)c(F)c1C(=O)Nc1ccccc1C(C)CC(C)C (stereo not shown)"
endpoint_value = "78%"


// below: Expected value, calculated using Colby's formula requested for another molecule
IN: For the molecule `Cn1cc(C(=O)Nc2ccccc2-c2cc(F)c(F)c(F)c2)c(C(F)F)n1` , what Expected value, calculated using Colby's formula is on record?
OUT: 98%
